# experimentDescription: reversal of MRP1-mediated doxorubicin resistance, pilot screen, H69AR cells, doxorubicin co-treatment (AID 601)
# assaySetup: H69AR cells + 2 uM doxorubicin, CellTiter-Glo, 72 h; measured here: viability with 2 uM doxorubicin; at 10 µM; stronger effect = lower value
parameter: viability (%)

[[record]]
compound = "CN/C(=C/[N+](=O)[O-])NCCSCc1ccc(CN(C)C)o1"
reading = 95

[[record]]
compound = "O=C(O)c1ccc(COc2c(F)c(F)c(F)c(F)c2F)o1"
reading = 101

[[record]]
compound = "C1CCC(C(CC2CCCCN2)C2CCCCC2)CC1 (stereo not given)"
reading = 1.26

[[record]]
compound = "CC1CCCN(C(=O)CN2CCN(C(=O)c3ccco3)CC2)C1 (stereo not given)"
reading = 81.6

[[record]]
compound = "COc1ccc(NC(=O)c2oc3ccc(S(=O)(=O)N4CCC5(CC4)OCCO5)cc3c2C)cc1"
reading = 42.8


###

Listed here: items and their measured differential viability (reversal).
# experimentDescription: reversal of MRP1-mediated doxorubicin resistance, pilot screen, H69AR cells, doxorubicin co-treatment (AID 601)
# assaySetup: H69AR cells + 2 uM doxorubicin, CellTiter-Glo, 72 h; at 10 µM; stronger effect = higher value
parameter: differential viability (reversal) (%)

[[record]]
compound = "COc1ccccc1N1CCN(C(=O)C2CC=CCC2C(=O)O)CC1 (stereo not given)"
reading = 6.56

[[record]]
compound = "O=C(C1CCN(c2nnc(-n3cccc3)s2)CC1)N1CCN(Cc2ccc3c(c2)OCO3)CC1"
reading = -3.6

[[record]]
compound = "CCOC(=O)c1sc2nc(SCC#N)n(CCCN3CCCC3=O)c(=O)c2c1C"
reading = -8.2

[[record]]
compound = "Cc1nc(-c2coc3cc(OCC(=O)O)ccc3c2=O)cs1"
reading = 1.5

[[record]]
compound = "O=C(CN1C(=O)NC2(CCCCC2)C1=O)Nc1ccc(S(=O)(=O)N2CCOCC2)cc1"
reading = 13.6

[[record]]
compound = "FC(F)Oc1cccc2cccnc12"
reading = 9.04

[[record]]
compound = "O=c1oc2cc(O)ccc2c2oc3cc(O)ccc3c12"
reading = 6.57

[[record]]
compound = "CCOc1ccccc1-n1c(SCC(=O)NC(C)CC)nnc1-c1ccoc1C (stereo not given)"
reading = 9.12

[[record]]
compound = "O=S(=O)(NCC1CCCO1)c1ccc2c(c1)OCCO2 (stereo not given)"
reading = 0.805

[[record]]
compound = "Cc1ccc2c(C(=O)CN3CCSCC3)c(C)[nH]c2c1"
reading = -0.745

[[record]]
compound = "CCn1ncc(C2=NOC(C(=O)N3CCC(C(N)=O)CC3)C2)c1C (stereo not given)"
reading = -2.31

[[record]]
compound = "CCOC(=O)CSC1=Nc2ccccc2C2=NC(CC(=O)NCc3cccs3)C(=O)N12 (stereo not given)"
reading = 5.7

[[record]]
compound = "C#CCN1C(=O)C(O)(CC(=O)c2cc(OC)ccc2OC)c2ccccc21 (stereo not given)"
reading = -16.8

[[record]]
compound = "O=C(CSc1nc(O)cc(=O)n1-c1ccccc1)N1CCCCC1"
reading = 2.4

[[record]]
compound = "N#Cc1cnc(SCCc2ccccc2)nc1N"
reading = 6.68

[[record]]
compound = "N=c1nc(N2CCCCC2)cc(N)n1O"
reading = 7.85

[[record]]
compound = "CC(C)=CCC(C)(C)C1OCCN1C(=O)c1ccccc1 (stereo not given)"
reading = 8.65

[[record]]
compound = "Cn1c(=O)c2c(nc(NCCNC(=O)c3ccco3)n2Cc2ccccc2Cl)n(C)c1=O"
reading = 5.75

[[record]]
compound = "CCOC(=O)C1=C(c2ccccc2)N2CCS(=O)(=O)N=C2S1"
reading = 6.51

[[record]]
compound = "Cc1ccc(CN2CCN(C(=O)C3CCC3)CC2)cc1"
reading = 4.13

